biological target: Cysteinyl leukotriene receptor 1 (Homo sapiens, UniProt Q9Y271); test: Compound were tested for inhibitory activity against Cysteinyl leukotriene D4 receptor
PROPERTY MEASURED: pIC50
pIC50 field: float, defined as -log10 of concentration (mol/L).

*Q* Tell me measured pIC50 for CN(C)C(=O)CCS[C@H](SCCC(=O)[O-])c1cccc(/C=C/c2ccc3ccc(Cl)cc3n2)c1.[Na+] please.
*A* 8.51

* * *

Biological target: Cysteinyl leukotriene receptor (Homo sapiens, UniProt Q9Y271+Q9NS75)
Sequence (Q9Y271 whole entry): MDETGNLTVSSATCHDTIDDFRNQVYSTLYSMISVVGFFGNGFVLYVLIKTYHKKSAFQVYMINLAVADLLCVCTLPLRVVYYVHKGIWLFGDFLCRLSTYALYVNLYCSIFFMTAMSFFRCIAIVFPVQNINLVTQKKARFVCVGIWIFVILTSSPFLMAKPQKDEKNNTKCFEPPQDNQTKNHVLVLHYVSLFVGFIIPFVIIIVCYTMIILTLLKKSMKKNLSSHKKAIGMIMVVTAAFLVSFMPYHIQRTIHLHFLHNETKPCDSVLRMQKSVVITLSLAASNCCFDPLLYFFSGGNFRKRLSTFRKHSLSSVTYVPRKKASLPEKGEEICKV
Sequence (Q9NS75 whole entry): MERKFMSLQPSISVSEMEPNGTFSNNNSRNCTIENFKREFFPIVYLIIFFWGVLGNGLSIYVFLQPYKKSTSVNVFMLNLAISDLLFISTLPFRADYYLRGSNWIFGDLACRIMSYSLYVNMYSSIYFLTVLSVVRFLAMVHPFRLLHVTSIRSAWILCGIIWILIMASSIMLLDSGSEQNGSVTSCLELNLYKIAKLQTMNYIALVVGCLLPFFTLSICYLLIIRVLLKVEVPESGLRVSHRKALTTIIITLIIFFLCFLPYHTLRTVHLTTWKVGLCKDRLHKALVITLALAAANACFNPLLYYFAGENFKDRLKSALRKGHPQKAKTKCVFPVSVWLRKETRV
Assay: Binding affinity against Cysteinyl leukotriene D4 receptor
Type: protein assay
For each of the compounds below, state its Ki.
The response must be a number in nM with no trailing unit.

*Q* Please indicate recorded Ki of CCCc1c(OCCCSc2ccc([C@@H](O)[C@H](C)CC(=O)O)cc2)ccc(C(C)=O)c1O [L-649923] measured with Cysteinyl leukotriene receptor (Homo sapiens, UniProt Q9Y271+Q9NS75).
*A* 400

*Q* // fetch Ki for CCCc1c(OCCCC/C=C\C=C\[C@H](Sc2ccc3c(=O)cc(C(=O)[O-])oc3c2)[C@H](O)c2cccc(C(F)(F)F)c2)ccc(C(C)=O)c1O.[Na+] ; system: Cysteinyl leukotriene receptor (Homo sapiens, UniProt Q9Y271+Q9NS75)
*A* 26

*Q* For Cysteinyl leukotriene receptor (Homo sapiens, UniProt Q9Y271+Q9NS75), give Ki of the listed compound: O=C(O)CCS[C@@H](CC(=O)O)c1ccccc1CCCCCCCCc1ccccc1
*A* 60

*Q* Consider the compound CN(C)C(=O)CCSC(SCCC(=O)[O-])c1cccc(/C=C/c2ccc3ccc(Cl)cc3n2)c1.[Na+] (stereo not drawn) tested on Cysteinyl leukotriene receptor (Homo sapiens, UniProt Q9Y271+Q9NS75); state its Ki.
*A* 0.2

*Q* GET Ki where system = Cysteinyl leukotriene receptor (Homo sapiens, UniProt Q9Y271+Q9NS75) and item = O=C(O)CCS[C@H](c1ccccc1CCCCCCCCc1ccccc1)[C@@H](O)C(=O)O [POBILUKAST]
*A* 5

*Q* Please report the measured Ki for CCCCCC(O)c1cccc(OCc2ccc3ccccc3n2)c1 (stereo not drawn) [REV-5901] tested on Cysteinyl leukotriene receptor (Homo sapiens, UniProt Q9Y271+Q9NS75).
*A* 700

*Q* Answer briefly: Ki recorded on Cysteinyl leukotriene receptor (Homo sapiens, UniProt Q9Y271+Q9NS75) for c1ccc(Cc2nn[nH]n2)c(COc2ccc(OCc3ccc4ccccc4n3)cc2)c1 [RG-12525]
*A* 3

*Q* Provide Ki, recorded with Cysteinyl leukotriene receptor (Homo sapiens, UniProt Q9Y271+Q9NS75), of CCCc1c(OCCCS(=O)(=O)c2ccc(C(=O)CCC(=O)O)cc2)ccc(C(C)=O)c1O [L-648051]
*A* 6200
